Where these numbers come from: PubChem BioAssay AID248

- Test system: L1210 leukemia ip in BDF1 mice, survival T/C
- Assay Text: NCI In Vivo Anticancer Drug Screen. Data for tumor model L1210 Leukemia (intraperitoneal) in B6D2F1 (BDF1) mice
- Condition Label: endpoint: mean survival time; dose: 12.5 mg/kg/injection; schedule: Q01DX009 (ip); vehicle: Klucel (hydroxypropylcellulose) (HPC); higher = longer survival
Inconclusive results and toxic doses are left out.
Recorded Metric: T/C

>>> result("COc1cccc(OC#N)c1OC")
"95 % of control"

Items follow; give T/C for each.
1. CC1(C)N=C(N)N=C(N)N1c1ccc(CCCCc2ccc(S(=O)(=O)F)cc2Cl)c(Cl)c1
2. O=C1CCCC(=O)C1C(C[N+](=O)[O-])c1ccccc1 (stereo not drawn)
3. CC(C)S(=O)(=O)/C(Cl)=C(/Cl)C(Cl)=C(Cl)Cl
4. CC(C)=CCC(CCN1CCOCC1)(C(N)=O)c1cccc2ccccc12 (stereo not drawn)
5. CCCCCC(=O)c1c(O)cc(=O)oc1C
6. O=C1CCC(=O)N1c1ccc(Cl)cc1

105 % of control
97 % of control
106 % of control
96 % of control
103 % of control
107 % of control

Dear colleague, I am looking for the recorded T/C of the following compound: C=COCC(C)C (tested in a mixture with another compound)
93 % of control

###

- Tested on: L1210 leukemia ip in BDF1 mice, survival T/C
- Assay Text: NCI In Vivo Anticancer Drug Screen. Data for tumor model L1210 Leukemia (intraperitoneal) in B6D2F1 (BDF1) mice
- Condition Label: endpoint: mean survival time; dose: 100.0 mg/kg/injection; schedule: Q04DX003 (ip); vehicle: Klucel (hydroxypropylcellulose) (HPC); higher = longer survival
Toxic doses and inconclusive results are not listed.
Recorded Metric: T/C

Use the examples below as a reference point.
>>> result("C=C(Cl)CC1(C(=O)OCC)CCN(S(=O)(=O)c2ccc(C)cc2)c2ccccc2C1=O (configuration not stated)")
"94 % of control"
>>> result("CCCCC(CC)NC(=O)c1cc(OC)c(OC)c(OC)c1 (configuration not stated)")
"105 % of control"
>>> result("Cn1ncc2ccccc2c1=O")
"100 % of control"
>>> result("CCOC(=O)/C(C#N)=C/c1ccc(O)c(OC)c1")
"102 % of control"
>>> result("COc1ccc(Br)cc1")
"100 % of control"
>>> result("CCN(CC)C(=O)c1ccc([N+](=O)[O-])cc1")
"92 % of control"

Next item in the queue.
# value lookup — system L1210 leukemia ip in BDF1 mice, survival T/C, readout T/C, item O=C(Nc1ccc(F)c(Cl)c1)Oc1ccc(OCc2ccccc2)cc1
94 % of control

###

- Tested on: L1210 leukemia ip in BDF1 mice, survival T/C
- Assay Text: NCI In Vivo Anticancer Drug Screen. Data for tumor model L1210 Leukemia (intraperitoneal) in B6D2F1 (BDF1) mice
- Condition Label: endpoint: mean survival time; dose: 200.0 mg/kg/injection; schedule: Q01DX009 (ip); vehicle: saline; higher = longer survival
Toxic doses and inconclusive results are not listed.
Recorded Metric: T/C

Use the examples below as a reference point.
>>> result("CC1CC(C(C)(C)C)CCC1S (stereo unspecified)")
"88 % of control"
>>> result("N#CCCC(CC#N)S(=O)(=O)O (stereo unspecified)")
"103 % of control"
>>> result("BrC1C2C=CCC1CC2 (stereo unspecified)")
"97 % of control"
>>> result("O=C(O)c1ccnc(C(=O)O)c1")
"93 % of control"
>>> result("COC(=O)Cc1cn[nH]c1C(=O)OC")
"94 % of control"

Items follow; give T/C for each.
1. C=CCOCCO
2. CN(C)C(=S)N=Nc1ccccc1
3. C1CCN(SN2CCCCC2)CC1
4. Oc1cc2c(cc1O)C1c3ccc(O)c(O)c3OCC1(O)C2 (stereo unspecified)
5. O=C1OC(c2ccccc2)=NC1c1ccccc1 (stereo unspecified)

108 % of control
107 % of control
102 % of control
104 % of control
97 % of control

Items follow; give T/C for each.
1. O=C1CCCN1C[CH2][Sn]([c]1ccccc1)([c]1ccccc1)[c]1ccccc1
2. CC1(C)CCC2CC(=O)OC2(C)C1 (stereo unspecified)
3. NC(CNO)C(=O)O (stereo unspecified)
4. CC(C)C[C@H](O)C(=O)O
5. CC1(C#N)CCC2c3ccccc3CCC2C1=O (stereo unspecified)
6. CNCC(OC)c1ccc(O)c(O)c1 (stereo unspecified)
7. CC(O)C(C)(C)CO (stereo unspecified)
8. CCOS(C)(=O)=O

1. 107 % of control
2. 94 % of control
3. 103 % of control
4. 101 % of control
5. 96 % of control
6. 105 % of control
7. 95 % of control
8. 104 % of control

Items follow; give T/C for each.
1. Nc1cccc2[nH]cnc12
2. CCOc1ccccc1NC(=O)c1cc2ccccc2cc1O

111 % of control
109 % of control

###

- System: L1210 leukemia ip in BDF1 mice, survival T/C
- Assay Text: NCI In Vivo Anticancer Drug Screen. Data for tumor model L1210 Leukemia (intraperitoneal) in B6D2F1 (BDF1) mice
- Condition Label: endpoint: mean survival time; dose: 100.0 mg/kg/injection; schedule: Q01DX001 (ip); vehicle: saline; higher = longer survival
Toxic doses and inconclusive results are not listed.
Recorded Metric: T/C

>>> result("CC1(C)CCCC2(C)C3=C(CC4(C(C)(C)O)OC4C3=O)C(=O)CC12 (stereo not drawn)")
"102 % of control"

Items follow; give T/C for each.
1. CCOC(=O)n1cnc2nc(N)nc(SC)c21
2. COc1ccc(CN2CCCN(Cc3ccc(OC)cc3OC)C2c2cc(Cl)cc(Cl)c2O)c(OC)c1

1. 97 % of control
2. 97 % of control

Items follow; give T/C for each.
1. CC(C)CCOC(OCCC(C)C)OCCC(C)C
2. O=[N+]([O-])c1ccccc1N=Nc1c(O)[nH]c2cccc(C(F)(F)F)c12
3. CC(=O)NC(C)(S)C(=O)O (stereo not drawn)
4. Nc1nc(N)c(-c2ccc(Cl)cc2)c(COc2cccc(NC(=O)c3ccc(NC(=O)CBr)cc3)c2)n1
5. CN(C)c1ccc(/C=N\NC(=O)CCCC(=O)N/N=C/c2ccc(N(C)C)cc2Cl)c(Cl)c1
6. O=C(CBr)c1cc(-c2ccc(Cl)c(Cl)c2)nc2c(Cl)cc(Cl)cc12
7. OCCN(CCO)c1nnc(-c2ccccc2)o1
8. CCCC(=O)OCC(=O)c1ccc(-c2ccccc2)cc1

100 % of control
103 % of control
103 % of control
91 % of control
98 % of control
94 % of control
102 % of control
96 % of control

Items follow; give T/C for each.
1. NC(=S)NS(=O)(=O)c1ccc(N)cc1
2. CC1=C(N2CCN(c3ccc(Cl)cc3)CC2)C(=O)CC(C)(C)C1
3. CC(=O)CC(=O)Nc1ccc(Cc2ccc(NC(=O)CC(C)=O)c(C)c2)cc1C
4. CSCCC(O)C(=O)O (stereo not drawn)
5. Cc1cc(O)cc(=O)[nH]1
6. CCN(CCO)CCNc1ccc(C)c2sc3ccccc3c(=O)c12
7. CSc1nc(C)c(C)c(=O)[nH]1
8. CCN(CC)CCOC(=O)c1ccccc1S(N)(=O)=O

104 % of control
97 % of control
88 % of control
101 % of control
97 % of control
116 % of control
104 % of control
104 % of control

###

- System: L1210 leukemia ip in BDF1 mice, survival T/C
- Assay Text: NCI In Vivo Anticancer Drug Screen. Data for tumor model L1210 Leukemia (intraperitoneal) in B6D2F1 (BDF1) mice
- Condition Label: endpoint: mean survival time; dose: 25.0 mg/kg/injection; schedule: Q04DX002 (ip); vehicle: saline; higher = longer survival
Toxic doses and inconclusive results are not listed.
Assignment: determine reported T/C for the given compounds.

Use the examples below as a reference point.
>>> result("Cc1cccc(SC(=O)SC(C)CN)c1 (centres undefined)")
"99 % of control"
>>> result("CC1(C)N=C(SCC(=O)c2ccccc2)NC1(C)C")
"101 % of control"
>>> result("CCOC(=O)/C(C#N)=C/c1cccn1Cc1ccc2c(c1)OCO2")
"101 % of control"

Next item in the queue.
Dear colleague, I am looking for the recorded T/C of the following compound: CCC[As](=O)(O)CC(C)C
97 % of control

###

- System: L1210 leukemia ip in BDF1 mice, survival T/C
- Assay Text: NCI In Vivo Anticancer Drug Screen. Data for tumor model L1210 Leukemia (intraperitoneal) in B6D2F1 (BDF1) mice
- Condition Label: endpoint: mean survival time; dose: 50.0 mg/kg/injection; schedule: Q01DX009 (ip); vehicle: Klucel (hydroxypropylcellulose) (HPC); higher = longer survival
- Protocol: The antitumor activity of compounds was measured in mice bearing transplantable tumors. Survival or tumor size were measured and the results are expressed as the measurement made in the treated group (T) divided by the measurement made in the vehicle treated control group (C). The tumor model used in this assay is L1210 Leukemia (intraperitoneal) in B6D2F1 (BDF1) mice
Toxic doses and inconclusive results are not listed.
Recorded Metric: T/C

Use the examples below as a reference point.
>>> result("CCC1(O)CC2c3ccccc3CCN2CC1CC(C)C (configuration not stated)")
"108 % of control"
>>> result("O=C(ONC1CCC(CC2CCCCC2)CC1)c1ccccc1 (configuration not stated)")
"102 % of control"
>>> result("O=c1nc(NCCc2cnc[nH]2)nc(NCCc2cnc[nH]2)[nH]1")
"100 % of control"
>>> result("CCC1(C)C(=O)N(C)C(=O)N1Br (configuration not stated)")
"101 % of control"
>>> result("CCCCCCCCCCCCCCCCS(=O)CCCCCCCCCCCCCCCC")
"88 % of control"

Items follow; give T/C for each.
1. N#Cc1cscc1C#N
2. c1ccc(COCCNCCOCc2ccccc2)cc1

1: 97 % of control; 2: 95 % of control
